assay: total protein half-life in vivo (active degradation + dilution); higher = more stable protein; conditions: wild type E. coli NCM3722; growth: N-lim chemostat; doubling time 6 h
property-measured: total protein half-life in vivo (h)
Expressed in h, but write only the number.

Some solved cases for reference:
MRTTSFAKVAALCGLLALSGCASKITQPDKYSGFLNNYSDLKETTSATGKPVLRWVDPSFDQSKYDSIVWNPITYYPVPKPSTQVGQKVLDKILNYTNTEMKEAIAQRKPLVTTAGPRSLIFRGAITGVDTSKEGLQFYEVVPVALVVAGTQMATGHRTMDTRLYFEGELIDAATNKPVIKVVRQGEGKDLNNESTPMAFENIKQVIDDMATDATMFDVNKK    6.07
MSHLDNGFRSLTLQRFPATDDVNPLQAWEAADEYLLQQLDDTEIRGPVLILNDAFGALSCALAEHKPYSIGDSYISELATRENLRLNGIDESSVKFLDSTADYPQQPGVVLIKVPKTLALLEQQLRALRKVVTSDTRIIAGAKARDIHTSTLELFEKVLGPTTTTLAWKKARLINCTFNEPQLADAPQTVSWKLEGTDWTIHNHANVFSRTGLDIGARFFMQHLPENLEGEIVDLGCGNGVIGLTLLDKNPQAKVVFVDESPMAVASSRLNVETNMPEALDRCEFMINNALSGVEPFRFNAVLCNPPFHQQHALTDNVAWEMFHHARRCLKINGELYIVANRHLDYFHKLKKIFGNCTTIATNNKFVVLKAVKLGRRR    5.17
MTNQPTEIAIVGGGMVGGALALGLAQHGFAVTVIEHAEPAPFVADSQPDVRISAISAASVSLLKGLGVWDAVQAMRCHPYRRLETWEWETAHVVFDAAELKLPLLGYMVENTVLQQALWQALEAHPKVTLRVPGSLIALHRHDDLQELELKGGEVIRAKLVIGADGANSQVRQMAGIGVHAWQYAQSCMLISVQCENDPGDSTWQQFTPDGPRAFLPLFDNWASLVWYDSPARIRQLQNMNMAQLQAEIAKHFPSRLGYVTPLAAGAFPLTRRHALQYVQPGLALVGDAAHTIHPLAGQGVNLGYRDVDALIDVLVNARSYGEAWASYPVLKRYQMRRMADNFIMQSGMDLFYAGFSNNLPPLRFMRNLGLMAAERAGVLKRQALKYALGL    3.81
MNIVITGGTGLIGRHLIPRLLELGHQITVVTRNPQKASSVLGPRVTLWQGLADQSNLNGVDAVINLAGEPIADKRWTHEQKERLCQSRWNITQKLVDLINASDTPPSVLISGSATGYYGDLGEVVVTEEEPPHNEFTHKLCARWEEIACRAQSDKTRVCLLRTGVVLAPDGGILGKMLPPFRLGLGGPIGSGRQYLAWIHIDDMVNGILWLLDNELRGPFNMVSPYPVRNEQFAHALGHALHRPAILRVPATAIRLLMGESSVLVLGGQRALPKRLEEAGFAFRWYDLEEALADVVR    5.76

Please give the documented total protein half-life in vivo of `MFSIQQPLLVFSDLDGTLLDSHSYDWQPAAPWLTRLREANVPVILCSSKTSAEMLYLQKTLGLQGLPLIAENGAVIQLAEQWQEIDGFPRIISGISHGEISLVLNTLREKEHFKFTTFDDVDDATIAEWTGLSRSQAALTQLHEASVTLIWRDSDERMAQFTARLNELGLQFMQGARFWHVLDASAGKDQAANWIIATYQQLSGKRPTTLGLGDGPNDAPLLEVMDYAVIVKGLNREGVHLHDEDPARVWRTQREGPEGWREGLDHFFSAR` 4.17

# return recorded total protein half-life in vivo for entry MDMDLNNRLTEDETLEQAYDIFLELAADNLDPADVLLFNLQFEERGGAELFDPAEDWQEHVDFDLNPDFFAEVVIGLADSEDGEINDVFARILLCREKDHKLCHIIWRE [P0A8L7] 3.83

Return the recorded total protein half-life in vivo value; entry: `MCGRFAQSQTREDYLALLAEDIERDIPYDPEPIGRYNVAPGTKVLLLSERDEHLHLDPVFWGYAPGWWDKPPLINARVETAATSRMFKPLWQHGRAICFADGWFEWKKEGDKKQPFFIYRADGQPIFMAAIGSTPFERGDEAEGFLIVTAAADQGLVDIHDRRPLVLSPEAAREWMRQEISGKEASEIAASGCVPANQFSWHPVSRAVGNVKNQGAELIQPV` 3.45
